# System: bluegrass (annual bluegrass, Poa annua)
# TEST_PROTOCOL: Test D controlled growth environment herbicide test, pre- and postemergence
# Assay type: in vivo
# MEASUREMENT_SETUP: Preemergence, 125 g ai/ha; scale 0 to 100 (0 no effect, 100 complete control)
Each item that follows carries a reported Plant response rating, Bluegrass.
Output: the number by itself.

- CHEMICAL_STRUCTURE: "Cc1cc(C)c2sc(C)c(-c3c(OC(=O)OC(C)C)c(C)nn(C)c3=O)c2c1"
  Plant response rating, Bluegrass: 20
- CHEMICAL_STRUCTURE: "CCOC(=O)Oc1c(C)nn(C)c(=O)c1-c1c(C)sc2ccc(C)cc12"
  Plant response rating, Bluegrass: 65
- CHEMICAL_STRUCTURE: "CC(=O)Oc1c(C)nn(C)c(=O)c1-c1c(C)sc2ccc(C)cc12"
  Plant response rating, Bluegrass: 40
- CHEMICAL_STRUCTURE: "CCOC(=O)Oc1c(C)nn(C)c(=O)c1-c1c(C)sc2c(C)cc(C)cc12"
  Plant response rating, Bluegrass: 35
- CHEMICAL_STRUCTURE: "Cc1ccc2sc(C)c(-c3c(O)c(C)nn(C)c3=O)c2c1"
  Plant response rating, Bluegrass: 35

Please examine the following record next.
INPUT: May I ask what Plant response rating, Bluegrass has been recorded for `CC(=O)Oc1c(Br)nn(C)c(=O)c1-c1c(C)ccc2ccccc12` ?
OUTPUT: 25

---

# System: corn (Zea mays)
# TEST_PROTOCOL: Test E greenhouse herbicide test, pre- and postemergence
# Format: in vivo
# MEASUREMENT_SETUP: 62 g ai/ha, Postemergence; scale 0 to 100 (0 no effect, 100 complete control)
# From the text: […]
PARAMETER: Plant response rating, Corn
Output: the number by itself.

- MOLECULE: "COc1nn(C)c(=O)c(-c2c(C)sc3ccc(Cl)cc23)c1O [Compound 100]"
  ASSAYED_TARGET: "corn (Zea mays)"
  Plant response rating, Corn: 5
- MOLECULE: "Cc1cc(C)c2sc(C)c(-c3c(OC(=O)OCCCl)c(C)nn(C)c3=O)c2c1 [Compound 85]"
  ASSAYED_TARGET: "corn (Zea mays)"
  Plant response rating, Corn: 0

INPUT: Recorded Plant response rating, Corn for CCC(=O)Oc1c(C)nn(C)c(=O)c1-c1c(C)sc2ccc(Cl)cc12 [Compound 109] with corn (Zea mays), please?
OUTPUT: 10

INPUT: Recorded Plant response rating, Corn for CC(=O)Oc1c(C)nn(C)c(=O)c1-c1ccc(F)c2ccccc12 [Compound 90] with corn (Zea mays), please?
OUTPUT: 5

---

# Test system: foxtail, giant (giant foxtail, Setaria faberii)
# TEST_PROTOCOL: Test C greenhouse herbicide test, pre- and postemergence
# Type: in vivo
# MEASUREMENT_SETUP: Postemergence, 125 g ai/ha; scale 0 to 100, 0 is no effect, 100 is complete control
PARAMETER: Plant response rating, Foxtail, Giant
Output: the number by itself.

# example entries with known answers
- CHEMICAL_STRUCTURE: "Cc1nn(C)c(=O)c(-c2ccc(F)c3ccccc23)c1OC(=O)CC(F)(F)F"
  Plant response rating, Foxtail, Giant: 35
- CHEMICAL_STRUCTURE: "COc1nn(C)c(=O)c(-c2c(C)sc3ccc(Cl)cc23)c1O"
  Plant response rating, Foxtail, Giant: 75
- CHEMICAL_STRUCTURE: "CCOC(=O)Oc1c(C)nn(C)c(=O)c1-c1c(C)ccc2ccccc12"
  Plant response rating, Foxtail, Giant: 75

INPUT: May I ask what Plant response rating, Foxtail, Giant has been recorded for `Cc1sc2ccc(Cl)cc2c1-c1c(OS(C)(=O)=O)c(Cl)nn(C)c1=O` ?
OUTPUT: 50

INPUT: May I ask what Plant response rating, Foxtail, Giant has been recorded for `Cc1ccc2sc(C)c(-c3c(O)c(C)nn(C)c3=O)c2c1` ?
OUTPUT: 60

INPUT: May I ask what Plant response rating, Foxtail, Giant has been recorded for `Cc1cc(C)c2sc(C)c(-c3c(OC(=O)OCCCl)c(C)nn(C)c3=O)c2c1` ?
OUTPUT: 90

These measurements were taken from patent US10597388B2.
